biological target: GST tagged PIP4KtypeIIA (Homo sapiens, UniProt P48426); construct: made in house; host or cells: E. coli; experiment: ADP-glo kinase assay PIP4K 2A (PIP4KtypeIIA inhibition assay); type: biochemical; conditions: Table 3; compounds listed under IC50 range headings; 10 uM ATP, 0.5 nM PIP4KIIA
Experimental readout: IC50

Measured IC50 (GST tagged PIP4KtypeIIA (Homo sapiens, UniProt P48426)), entry CN(C)C(=O)c1ccc(-c2cc(-c3ccnc(CNC(=O)CCc4cccc(N)c4)c3)cnc2N)nc1 : > 5000 nM

IC50 of O=C1CCCN1c1ccc(-c2cncc(-n3ccc4ncccc43)c2)cc1 , assay on GST tagged PIP4KtypeIIA (Homo sapiens, UniProt P48426), is 100 to 1000 nM

Observed IC50 on GST tagged PIP4KtypeIIA (Homo sapiens, UniProt P48426), entry CN(C)C(=O)c1ccc(-c2cncc(-c3ccnc4c3ccn4C)c2)cc1 , equals 2500 to 5000 nM

----------
Target chain: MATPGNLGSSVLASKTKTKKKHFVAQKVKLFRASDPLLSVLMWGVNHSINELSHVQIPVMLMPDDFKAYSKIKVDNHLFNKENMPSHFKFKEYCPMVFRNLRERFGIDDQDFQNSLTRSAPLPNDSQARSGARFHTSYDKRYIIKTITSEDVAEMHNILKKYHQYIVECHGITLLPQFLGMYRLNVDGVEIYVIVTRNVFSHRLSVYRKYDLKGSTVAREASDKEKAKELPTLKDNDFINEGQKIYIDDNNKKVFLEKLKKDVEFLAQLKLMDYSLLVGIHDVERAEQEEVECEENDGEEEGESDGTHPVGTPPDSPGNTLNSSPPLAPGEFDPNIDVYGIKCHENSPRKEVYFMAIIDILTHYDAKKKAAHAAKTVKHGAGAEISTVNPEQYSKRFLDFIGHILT
pIC50: −log10 of the molar value.
Each entry below carries its recorded pIC50.

Below, 3 compounds whose answers are already recorded.
Compound	Recorded measurement
O=C1CCCN1c1ccc(-c2cncc(-c3cnc4nccn4c3)c2)cc1 [Example 275]	6.00 to 7.00
CS(=O)(=O)N1Cc2nccc(-c3cncc(-c4ccc(N5CCCC5=O)cc4)c3)c2C1 [Example 64]	6.00 to 7.00
CN(C)C(=O)c1ccc(-c2cc(-c3ccnc4[nH]c(C(=O)N5CC(O)C5)cc34)cnc2N)nc1 [Example 129]	6.00 to 7.00

Quick note, pIC50 for COCCNC(=O)c1cc2c(-c3cnc(N)c(-c4ccc(N5CCCC5=O)cc4)c3)ccnc2o1 [Example 90] landed at 7.00 to 8.30

Sure, the documented pIC50 for CN(C)C/C=C/C(=O)Nc1cccc(C(=O)NCc2cc(-c3cnc(N)c(-c4ccc(C(=O)N(C)C)cn4)c3)ccn2)c1 [Example 192] is 5.60 to 6.00

pIC50 reported for this compound CC(C)Cn1cnnc1-c1ccc(-c2cncc(-c3ccnc4c3cc3n4CCN(C)C3=O)c2)cc1 [Example 383] : 6.00 to 7.00

In plain terms, O=C1CCCN1c1ccc(-c2cncc(-c3c[nH]c(=O)c4[nH]ncc34)c2)cc1 [Example 74] has a documented pIC50 of 7.00 to 8.30

So, Cc1cc(-c2cncc(-c3ccc(N4CCCC4=O)cc3)c2)n2cnnc2n1 [Example 336] ? Its pIC50 was > 5.30
